system.tested: T1, human CD3ed (human, UniProt P07766 23-126; P04234 22-105, limits assumed)
T1 construct: The construct injected as 'human CD3ed' in the Biacore assay is not defined; also called human CD3 epsilon/delta heterodimer
protocol.notes: SPR Biacore T200, IgG captured on protein A, antigen as analyte, 25 C;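 further: antigens flowed over a CM3 chip for 120 s association, KD derived from ka and kd, running buffer (ACES, NaCl, Tween20, pH 7.4) served as blank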
reported.property: kon (M⁻¹ s⁻¹)
Give bare numbers, in M⁻¹ s⁻¹.

Look over these answered cases.
binder: dBBDu_167 / dBBDu.L094 (antibody, human IgG1, V domains shown, Tested as IgG (human IgG1 constant region, kappa light chain); also called dBBDu167/L094; dBBDu_167/L094) VH: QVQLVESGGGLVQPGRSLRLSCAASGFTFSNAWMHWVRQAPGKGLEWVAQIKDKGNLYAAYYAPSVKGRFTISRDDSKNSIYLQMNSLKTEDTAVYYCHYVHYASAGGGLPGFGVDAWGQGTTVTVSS VL: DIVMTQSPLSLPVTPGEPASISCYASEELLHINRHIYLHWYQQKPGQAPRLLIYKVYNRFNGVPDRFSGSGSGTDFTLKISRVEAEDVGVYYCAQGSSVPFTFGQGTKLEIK
units.of.measure: M⁻¹ s⁻¹
measured.result: 60200
--
binder: dBBDu_189 / dBBDu_L119 (antibody, human IgG1, V domains shown, Tested as IgG (human IgG1 constant region, kappa light chain); also called dBBDu189/L119) VH: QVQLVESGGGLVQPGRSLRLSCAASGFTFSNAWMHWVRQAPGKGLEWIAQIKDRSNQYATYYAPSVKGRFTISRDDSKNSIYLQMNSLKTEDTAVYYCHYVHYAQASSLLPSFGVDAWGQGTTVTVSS VL: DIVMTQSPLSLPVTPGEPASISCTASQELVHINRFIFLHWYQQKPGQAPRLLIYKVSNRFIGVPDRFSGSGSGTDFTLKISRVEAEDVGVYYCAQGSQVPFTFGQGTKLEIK
units.of.measure: M⁻¹ s⁻¹
measured.result: 12500
--
binder: dBBDu_186 / dBBDu_L106 (antibody, human IgG1, V domains shown, Tested as IgG (human IgG1 constant region, kappa light chain); also called dBBDu186/L106) VH: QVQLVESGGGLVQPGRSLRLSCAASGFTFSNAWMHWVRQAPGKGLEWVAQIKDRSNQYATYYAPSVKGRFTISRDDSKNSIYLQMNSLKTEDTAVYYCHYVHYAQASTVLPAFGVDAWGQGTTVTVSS VL: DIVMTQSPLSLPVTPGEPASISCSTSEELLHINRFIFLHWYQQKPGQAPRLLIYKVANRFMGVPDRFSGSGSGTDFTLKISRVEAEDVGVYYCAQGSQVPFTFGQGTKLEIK
units.of.measure: M⁻¹ s⁻¹
measured.result: 10300
--
binder: dBBDu_189 / dBBDu_L112 (antibody, human IgG1, V domains shown, Tested as IgG (human IgG1 constant region, kappa light chain); also called dBBDu189/L112) VH: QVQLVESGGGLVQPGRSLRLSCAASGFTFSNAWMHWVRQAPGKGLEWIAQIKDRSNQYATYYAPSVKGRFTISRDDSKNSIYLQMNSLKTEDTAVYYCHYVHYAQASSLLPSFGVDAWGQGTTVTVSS VL: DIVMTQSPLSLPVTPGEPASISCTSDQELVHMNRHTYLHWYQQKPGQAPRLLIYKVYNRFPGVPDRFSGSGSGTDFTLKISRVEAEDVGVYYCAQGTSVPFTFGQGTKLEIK
units.of.measure: M⁻¹ s⁻¹
measured.result: 30300

Now, please, on to the next binder.
Asked: Reported kon, binder dBBDu_189 / dBBDu_L116 (antibody, human IgG1, V domains shown, Tested as IgG (human IgG1 constant region, kappa light chain); also called dBBDu189/L116) VH: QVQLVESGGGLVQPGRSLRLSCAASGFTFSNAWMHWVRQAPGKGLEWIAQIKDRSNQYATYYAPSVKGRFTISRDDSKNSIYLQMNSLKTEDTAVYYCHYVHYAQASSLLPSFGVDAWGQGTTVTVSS VL: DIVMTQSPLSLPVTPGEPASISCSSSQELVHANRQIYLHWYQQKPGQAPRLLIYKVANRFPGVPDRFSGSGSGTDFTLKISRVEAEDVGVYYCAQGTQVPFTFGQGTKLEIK : ____
Given back: 20800
